What GI50 was measured for each of the following?
# Tested on: MOLT-4 leukemia
# experiment_notes: NCI tumour cell line growth inhibition, 48 h

Given the entry Clc1ccc(C(Cn2ccnc2)OCc2ccsc2Cl)c(Cl)c1 (stereo not given) , what GI50 was observed with MOLT-4 leukemia? 2.4 µM

Proceed to `CSc1nc(-c2cc3ccccc3o2)cc(-c2ccc(Cl)cc2)c1C#N` > 85 µM

Ok, now `OCCCCC#Cc1ccccc1C#Cc1ccccn1` 21.4 µM

Can you check `COc1ccc2cc(C#Cc3ccc(-n4c(/C=C/c5cc(OC)c(OC)c(OC)c5)nc5ccccc5c4=O)c(C)c3)ccc2c1` next? 4.66 µM

And what about the molecule `COc1cc(/C=C/C(=O)c2ccc(Nc3nc(NCCO)nc(N4CCOCC4)n3)cc2)cc(OC)c1OC` ? 1.19 µM

For `CCOc1cc(F)c([N+](=O)[O-])cc1[N+](=O)[O-]` then? 2.85 µM

And the next one, `Oc1c(Br)cc(Br)c2ccc(Cn3cc(-c4ccc(C(F)(F)F)cc4)nn3)nc12` ? 1.01 µM

What about `CN[C@@H](C)C(=O)N[C@H]1CCS[C@H]2CC(C)(C)[C@@H](C(=O)N[C@H]3c4ccccc4C[C@H]3OCC#CC#CCO[C@@H]3Cc4ccccc4[C@@H]3NC(=O)[C@H]3N4C(=O)[C@@H](NC(=O)[C@H](C)NC)CCS[C@H]4CC3(C)C)N2C1=O` ? 9.86 µM

Same again, this time with `C1C[OH+]CC[OH+]CC[OH+]CC[OH+]CC[OH+]CC[OH+]1.[Cl-].[V]` 82.5 µM

Now the molecule `COc1cccc2[nH]c3c4c(c5c(c3c12)C(=O)N(CN1CCN(C)CC1)C5=O)CCC4` 5.9 µM
